Test system: nucleic acid polymerase
Assay: PEM activity summary: primer extension on 45mer, 100mer, 150mer, 222mer DNA templates, gel (Table 2)
Assay type: biochemical
Condition context: preliminary functional characterization
Reported endpoint: Functional Category: PEM effect

q: Enter measured Functional Category: PEM effect, system nucleic acid polymerase, for the compound shown: CCNC(=O)c1cc(-c2cn(-c3ccc4cc(C(=O)O)ccc4c3)nn2)nc(-c2cn(-c3ccc4cc(C(=O)O)ccc4c3)nn2)c1
a: PEM effect

q: Enter measured Functional Category: PEM effect, system nucleic acid polymerase, for the compound shown: O=C(O)c1ccc(-n2cc(-c3cccc(-c4cn(-c5ccc(C(=O)O)c(O)c5)nn4)c3)nn2)cc1
a: PEM effect

q: Enter measured Functional Category: PEM effect, system nucleic acid polymerase, for the compound shown: CCNC(=O)c1cc(-c2cn(-c3ccc(C(=O)NCC)c(C(F)(F)F)c3)nn2)nc(-c2cn(-c3ccc(C(=O)NCC)c(C(F)(F)F)c3)nn2)c1
a: PEM effect

q: Enter measured Functional Category: PEM effect, system nucleic acid polymerase, for the compound shown: CCNC(=O)c1cc(-c2cn(-c3ccc(C(=O)NCC(=O)NCC(=O)O)c(C(F)(F)F)c3)nn2)nc(-c2cn(-c3ccc(C(=O)NCC(=O)NCC(=O)O)c(C(F)(F)F)c3)nn2)c1
a: PEM effect
